Ref: the supplement of paper PMC10567573

B1: IKZF1 (parent)
chain: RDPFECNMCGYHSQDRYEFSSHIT

Variants of: B1
test: protein stability index of a GFP-peptide fusion (GPS, HEK-293T) (PSI 1-6); higher = more stable;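 also: lentivirally expressed fusions sorted by FACS into six bins by GFP to DsRed ratio, PSI derived from sequencing read proportions per bin multiplied by bin number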
testConditions: c terminus: a fixed tail appended
experimentalEndpoint: protein stability index
Numbers only.

Use the examples below as a reference point.
Short answer for "R16W" : protein stability index was 2.03

Field protein stability index (entry "D15S" ) reads 1.54

Data point: "Q14L" ; protein stability index = 1.93

Each of the following entries comes with a recorded value; kindly state protein stability index for each.
1. C9P
2. Y17D
3. S21Q
4. Q14E
5. S21H
6. Y17R

Result:
1. 3.09
2. 3.1
3. 1.83
4. 2.29
5. 2.63
6. 2.1

State the recorded protein stability index for every item in the following list.
1. I23L
2. Y11H
3. T24N

Result:
1. 2.15
2. 2.71
3. 2.23
